# CONDITION_NOTES: in acetone, 323.15 K
REPORTED_PROPERTY: solubility (mole fraction)
Write the number on its own, no unit after it.

I have this molecule here, N[C@@H](Cc1ccc([N+](=O)[O-])cc1[N+](=O)[O-])C(=O)O , and I need its recorded solubility (mole fraction).
1.01e-05

* * *

# CONDITION_NOTES: in isopropanol, 298.15 K
REPORTED_PROPERTY: solubility (mole fraction)
When you answer, write just the number.

Entry under review: N[C@@H](Cc1ccc([N+](=O)[O-])cc1[N+](=O)[O-])C(=O)O . Reported solubility (mole fraction)?
2.42e-05

* * *

# CONDITION_NOTES: in methanol, 313.15 K
REPORTED_PROPERTY: solubility (mole fraction)
Provide a numeric answer; units are not to be included.

// solubility (mole fraction) lookup, key: N[C@@H](Cc1ccc([N+](=O)[O-])cc1[N+](=O)[O-])C(=O)O
0.00155

* * *

# CONDITION_NOTES: in ethanol, 313.15 K
REPORTED_PROPERTY: solubility (mole fraction)
Lab note: jot the number down without any unit.

Value lookup for solubility (mole fraction); key = N[C@@H](Cc1ccc([N+](=O)[O-])cc1[N+](=O)[O-])C(=O)O
0.00051

* * *

# CONDITION_NOTES: in ethyl acetate, 348.15 K
REPORTED_PROPERTY: solubility (mole fraction)
Reply: number alone, nothing else.

Returns the measured solubility (mole fraction) for the input molecule. Input: N[C@@H](Cc1ccc([N+](=O)[O-])cc1[N+](=O)[O-])C(=O)O
5.44e-05

* * *

# CONDITION_NOTES: in isopropanol, 328.15 K
REPORTED_PROPERTY: solubility (mole fraction)
When you answer, write just the number.

Look at this compound and give its reported solubility (mole fraction). N[C@@H](Cc1ccc([N+](=O)[O-])cc1[N+](=O)[O-])C(=O)O
0.00013

* * *

# CONDITION_NOTES: in isopropanol, 288.15 K
REPORTED_PROPERTY: solubility (mole fraction)
No unit in the answer, please; the number alone is enough.

Param item = N[C@@H](Cc1ccc([N+](=O)[O-])cc1[N+](=O)[O-])C(=O)O ; retrieve measured solubility (mole fraction).
9.49e-06

* * *

# CONDITION_NOTES: in ethyl acetate, 343.15 K
REPORTED_PROPERTY: solubility (mole fraction)

What measured solubility (mole fraction) goes with N[C@@H](Cc1ccc([N+](=O)[O-])cc1[N+](=O)[O-])C(=O)O ?
3.58e-05

* * *

# CONDITION_NOTES: in methanol, 293.15 K
REPORTED_PROPERTY: solubility (mole fraction)

Form field: reported solubility (mole fraction) of N[C@@H](Cc1ccc([N+](=O)[O-])cc1[N+](=O)[O-])C(=O)O
0.000365

* * *

# CONDITION_NOTES: in water, 333.15 K
REPORTED_PROPERTY: solubility (mole fraction)
// return a plain number; no unit text

Bench note: what solubility (mole fraction) did N[C@@H](Cc1ccc([N+](=O)[O-])cc1[N+](=O)[O-])C(=O)O show?
0.00107

* * *

# CONDITION_NOTES: in acetone, 283.15 K
REPORTED_PROPERTY: solubility (mole fraction)
Just the number, please.

Give the measured solubility (mole fraction) of N[C@@H](Cc1ccc([N+](=O)[O-])cc1[N+](=O)[O-])C(=O)O .
1.72e-06
